Numbers sourced from paper PMC7667546.

Biological target: urease (Canavalia ensiformis, UniProt P07374)
Construct: purchased Sigma (Germany) Type III, powder, 15,000-50,000 units/g solid
Sequence (P07374 whole entry, looked up): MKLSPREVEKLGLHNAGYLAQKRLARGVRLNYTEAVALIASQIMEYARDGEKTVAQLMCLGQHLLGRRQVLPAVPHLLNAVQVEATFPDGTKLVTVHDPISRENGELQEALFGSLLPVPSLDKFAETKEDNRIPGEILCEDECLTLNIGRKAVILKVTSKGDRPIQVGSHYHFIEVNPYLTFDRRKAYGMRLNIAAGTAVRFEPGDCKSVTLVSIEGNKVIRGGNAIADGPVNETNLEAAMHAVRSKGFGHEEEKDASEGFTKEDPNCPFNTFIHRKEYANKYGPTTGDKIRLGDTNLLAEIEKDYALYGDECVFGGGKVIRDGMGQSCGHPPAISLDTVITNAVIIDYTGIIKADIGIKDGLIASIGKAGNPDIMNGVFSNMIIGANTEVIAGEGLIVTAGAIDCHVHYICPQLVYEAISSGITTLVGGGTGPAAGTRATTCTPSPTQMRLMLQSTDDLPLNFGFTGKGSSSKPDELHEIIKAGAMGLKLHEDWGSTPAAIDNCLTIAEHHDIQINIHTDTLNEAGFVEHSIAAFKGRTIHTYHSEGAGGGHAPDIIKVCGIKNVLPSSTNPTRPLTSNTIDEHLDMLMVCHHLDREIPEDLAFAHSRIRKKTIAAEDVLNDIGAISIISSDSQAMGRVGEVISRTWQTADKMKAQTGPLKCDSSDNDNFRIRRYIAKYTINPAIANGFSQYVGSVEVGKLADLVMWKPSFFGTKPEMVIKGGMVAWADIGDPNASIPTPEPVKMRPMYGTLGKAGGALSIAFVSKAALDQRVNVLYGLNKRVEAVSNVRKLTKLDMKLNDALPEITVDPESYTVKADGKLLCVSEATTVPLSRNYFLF
Assay: biochemical
Design: species or system Canavalia ensiformis (Jack bean)
Conditions: read-out: Inhibition (%) Urease, 10µg/mL; mean ± S.D. of three measurements; N.A. = not active
Text: Details of all biological activity and molecular modeling studies are given as supplementary material. The enzyme activities of the extracts were studied by observing urease, tyrosinase acetyl- and butyryl-cholinesterase inhibition activities ([22]-[25]). The ligands were then applied with partial atomic charges derived by ﬁtting Antechamber obtained by electronic structure calculation module in AMBER and assigned the AM1-BCC charges ([26]-[29]).
observable: inhibition at 10 µg/mL

Use the examples below as a reference point.
[
  {
    "chem.smiles": "Cc1coc2c1C(=O)C(=O)c1c-2ccc2c(C)cccc12",
    "test.result": "42.4%"
  },
  {
    "chem.smiles": "CC(C)c1cc2c(c(O)c1O)[C@@]13CCCC(C)(C)[C@@H]1C[C@@H]2OC3=O",
    "test.result": "16.1%"
  }
]

Problem: Please give the measured inhibition at 10 µg/mL for this compound: C[C@H]1COC2=C1C(=O)C(=O)c1c2ccc2c1CCCC2(C)C
Solution: 29.7%

Problem: Now the same for CC(C)c1cc2c(c(O)c1O)[C@@]1(C(=O)O)CCCC(C)(C)[C@@H]1CC2
Solution: 22.4%

Problem: Request: O=C(/C=C/c1ccc(O)c2c1[C@H](C(=O)O[C@H](Cc1ccc(O)c(O)c1)C(=O)O)[C@@H](c1ccc(O)c(O)c1)O2)O[C@H](Cc1ccc(O)c(O)c1)C(=O)O
Solution: 49.8%

Problem: Now this one: Cc1coc2c1C(=O)C(=O)c1c-2ccc2c1CCCC2(C)C
Solution: 14.3%
